System: NCI-H295R
experiment: AC50 viability; higher = less potent
reportedConditions: 48 h
Mark each entry Yes if its AC50 viability sits below 8 µM, and No for all others.

compound	assignedClass
CNC1CCC(N(Cc2cccc(-c3ccncc3)c2)C(=O)c2sc3c(F)ccc(F)c3c2Cl)CC1 (configuration not stated)	No
Cc1cccc(-c2[nH]c(C(C)(C)C)nc2-c2ccc3c(c2)OCO3)n1	No
C/C=C(/C)C(=O)O[C@H]1C(C)=C2[C@H]([C@@H]1OC(=O)CCCCCCC)[C@@](C)(OC(C)=O)C[C@H](OC(=O)CCC)[C@@]1(O)[C@H]2OC(=O)[C@@]1(C)O	No

Turning now to a further compound:
Task item: Does `O=[N+]([O-])c1ccc(Nc2ccccc2-c2ccccc2)c2nonc12` have AC50 viability strictly under 8 µM?
Reply: No

###

System: CU-ACC2
experiment: area under concentration-response curve (viability) (AUC (a.u.)); higher = less active
reportedConditions: 48 h
recordedEndpoint: area under concentration-response curve
Please give the numeric answer without any surrounding text.

compound	area under concentration-response curve
CC(C)C1CCC(C(=O)N[C@H](Cc2ccccc2)C(=O)O)CC1 (some centres undefined)	652

Task item: Which area under concentration-response curve value belongs to `O=C1CCc2cc(OCCCCc3nnnn3C3CCCCC3)ccc2N1` ?
Reply: 579

Task item: Which area under concentration-response curve value belongs to `CCCC1=N[N](C)C2=C1\N=C(/NC2=O)C3=CC(=CC=C3OCC)[S+]([O-])(=O)N4CCN(C)CC4` ?
Reply: 610

Task item: Which area under concentration-response curve value belongs to CCCNCC(O)COc1ccccc1C(=O)CCc1ccccc1 (centres undefined) ?
Reply: 451

Task item: Which area under concentration-response curve value belongs to `CCN(CCO)CCCOc1ccc2c(Nc3cc(CC(=O)Nc4cccc(F)c4)[nH]n3)ncnc2c1` ?
Reply: 569

Task item: Which area under concentration-response curve value belongs to C=C1C(=O)OC(CCCCCCCC)C1C(=O)O (centres undefined) ?
Reply: 457

###

Test system: CU-ACC1
experiment: area under concentration-response curve (viability) (AUC (a.u.)); higher = less active
reportedConditions: 48 h
Here the recorded area under concentration-response curve is given for each entry.
Please give the numeric answer without any surrounding text.

compound	observedResult
Nc1ccccc1NC(=O)c1ccc(CNC(=O)OCc2cccnc2)cc1	422
Cn1nccc1Nc1nccc(-c2cc3c(s2)C(C)(C)N(CCN2CCOCC2)C3=O)n1	528
NC(=O)c1cccc2c(NC(CN3CCC3)c3ccc(Cl)c(C(F)(F)F)c3)ncnc12 (stereo not drawn)	266

Task item: Which area under concentration-response curve value belongs to `CC(=O)NC[C@H]1CN(c2ccc(N3CCOCC3)c(F)c2)C(=O)O1` ?
Reply: 565

Task item: Which area under concentration-response curve value belongs to `Cc1cccc(-c2[nH]c(CNc3ccccc3F)nc2-c2ccc3ncnn3c2)n1` ?
Reply: 483

Task item: Which area under concentration-response curve value belongs to `COc1cc2c(NC3CCN(C4CCCCC4)CC3)nc(N3CCCN(C(C)C)CC3)nc2cc1OCCCN1CCCCC1` ?
Reply: 534

Task item: Which area under concentration-response curve value belongs to CNC(=O)Cn1cc(-c2ccc3c(c2)C(F)CC32NC(=O)N(CC(=O)N(Cc3ccc(F)cc3)C(C)C(F)(F)F)C2=O)cn1 (stereo not drawn) ?
Reply: 500

Task item: Which area under concentration-response curve value belongs to `CC(C)c1cnn2c(NCc3ccccc3)cc(N[C@@H](CO)[C@H](O)CO)nc12` ?
Reply: 372

The values you see were collected from the supplement of paper PMC10949913.
